Entry source: ChEMBL document CHEMBL3352660

target: UniProtKB O76074; assay: Inhibition of human recombinant PDE5A using […] as substrate at 1 uM after 30 mins by scintillation proximity assay
Answer each item with its documented inhibition.
Give bare numbers, in %.

Some solved cases for reference:
SMI: Cn1cc(-c2cccc(Oc3nccc(-c4cncnc4)n3)c2)c2nc3ccccc3cc21
MEASUREMENT UNIT: %
inhibition: 1.5

SMI: Cn1cc(-c2ccc(Oc3nccnc3-c3ccncc3)cc2)c2nc3ccccc3cc21
MEASUREMENT UNIT: %
inhibition: 9.4

SMI: Cn1cc(-c2ccc(Oc3nccnc3-c3ccncc3)cc2)c2ncc(Cl)cc21
MEASUREMENT UNIT: %
inhibition: 0.1

SMI: Cc1cnc2c(-c3ccc(Oc4ncccc4-c4ccncc4)cc3)cn(C)c2c1
MEASUREMENT UNIT: %
inhibition: 9.6

SMI: Cn1cc(-c2cccc(Oc3nccc(-c4cn[nH]c4)n3)c2)c2nc3ccccc3cc21
MEASUREMENT UNIT: %
inhibition: 8.2

SMI: Cn1cc(-c2cccc(Oc3nccc(N4CCOCC4)n3)c2)c2nc3ccccc3cc21
MEASUREMENT UNIT: %
inhibition: 16

Batch of 4 compounds: report inhibition for each.
1. Cn1cc(-c2ccc(Oc3ncccc3-c3ccncc3)cc2)c2ncccc21
2. Cn1cc(-c2ccc(Oc3ncccc3-c3ccncc3)cc2)c2ncc(Cl)cc21
3. Cn1cc(-c2ccc(Oc3nccnc3-c3ccncc3)cc2)c2ncccc21
4. Cn1cc(-c2ccc(Oc3nccnc3-c3cncnc3)cc2)c2nc3ccccc3cc21

Solution:
[2.2, 2.4, 0.8, 9.4]
